Biological target: androgen receptor (AR) (Homo sapiens, UniProt P10275)
Sequence (P10275 1-920): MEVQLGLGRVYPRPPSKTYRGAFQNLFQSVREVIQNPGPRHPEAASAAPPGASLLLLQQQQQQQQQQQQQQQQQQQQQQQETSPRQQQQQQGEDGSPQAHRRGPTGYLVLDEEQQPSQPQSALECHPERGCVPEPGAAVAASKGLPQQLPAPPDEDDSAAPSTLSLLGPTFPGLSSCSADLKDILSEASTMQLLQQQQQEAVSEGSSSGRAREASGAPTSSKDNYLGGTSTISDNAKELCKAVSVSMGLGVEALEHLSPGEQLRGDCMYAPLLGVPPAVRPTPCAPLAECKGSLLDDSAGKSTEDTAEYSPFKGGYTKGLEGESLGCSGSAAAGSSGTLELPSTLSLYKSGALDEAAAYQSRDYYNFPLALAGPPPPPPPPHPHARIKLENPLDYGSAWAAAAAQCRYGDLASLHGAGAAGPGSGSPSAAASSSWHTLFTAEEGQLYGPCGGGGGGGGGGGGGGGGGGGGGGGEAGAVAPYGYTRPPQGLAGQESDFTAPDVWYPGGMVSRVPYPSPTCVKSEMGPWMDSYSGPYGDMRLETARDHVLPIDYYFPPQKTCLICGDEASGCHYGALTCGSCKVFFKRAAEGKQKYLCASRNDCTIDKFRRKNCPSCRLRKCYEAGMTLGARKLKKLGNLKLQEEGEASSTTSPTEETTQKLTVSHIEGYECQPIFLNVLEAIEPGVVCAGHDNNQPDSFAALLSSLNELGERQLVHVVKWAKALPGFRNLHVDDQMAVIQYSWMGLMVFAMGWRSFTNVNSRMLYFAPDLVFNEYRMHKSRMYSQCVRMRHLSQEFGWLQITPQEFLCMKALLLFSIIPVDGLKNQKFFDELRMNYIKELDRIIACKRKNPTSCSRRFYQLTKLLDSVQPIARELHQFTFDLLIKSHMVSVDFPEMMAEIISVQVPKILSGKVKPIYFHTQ
Experiment: Degradation of androgen receptor (AR) protein in VCaP cells by Western blot
Type: cell-based
Conditions: percentage of degraded AR at 100 nM, VCaP cells, 16 h
Assay Metric: inhibition at 0.1 µM

Record for N#Cc1ccc(OC2CC3(C2)CN(C(=O)c2ccc(N4CCC(CN5CCN(c6ccc7c(c6)C(=O)N(C6CCC(=O)NC6=O)C7=O)CC5)CC4)nn2)C3)cc1Cl (centres unmarked) [Compound 120] under target or system androgen receptor (AR) (Homo sapiens, UniProt P10275): inhibition at 0.1 µM reported as < 25%

Record for CC1(C)[C@H](Oc2ccc(C#N)c(Cl)c2)C(C)(C)[C@H]1N1Cc2nc(C#CC3CCN(C4CCN(c5cc6c(cc5F)C(=O)N(C5CCC(=O)NC5=O)C6=O)CC4)CC3)ccc2C1=O (some centres unmarked) [Compound 316] under target or system androgen receptor (AR) (Homo sapiens, UniProt P10275): inhibition at 0.1 µM reported as 25 to 49%

Record for CC1(C)[C@H](Oc2ccc(C#N)c(Cl)c2)C(C)(C)[C@H]1N1Cc2cc(N3CCC(CN4CCN(c5ccc6c(c5)CN(C5CCC(=O)NC5=O)C6=O)CC4)CC3)ccc2C1=O (some centres unmarked) [Compound 248] under target or system androgen receptor (AR) (Homo sapiens, UniProt P10275): inhibition at 0.1 µM reported as < 25%

Record for CC1(C)[C@H](Oc2ccc(C#N)c(Cl)c2)C(C)(C)[C@H]1N1Cc2nc(C#C[C@H]3CC[C@H](N4CCN(c5cc6c(cc5F)C(=O)N(C5CCC(=O)NC5=O)C6=O)CC4)CC3)ccc2C1=O (some centres unmarked) [Compound 326] under target or system androgen receptor (AR) (Homo sapiens, UniProt P10275): inhibition at 0.1 µM reported as 50 to 79%

More entries:
Record for N#Cc1ccc(O[C@H]2CC[C@H](NC(=O)c3cnc(N4CCC(CN5CC6CN(c7ccc8c(c7)C(=O)N(C7CCC(=O)NC7=O)C8=O)CC6C5)CC4)nc3)CC2)cc1Cl (some centres unmarked) [Compound 256] under target or system androgen receptor (AR) (Homo sapiens, UniProt P10275): inhibition at 0.1 µM reported as 25 to 49%

---

Biological target: androgen receptor (AR) (Homo sapiens, UniProt P10275)
Experiment: Degradation of androgen receptor (AR) protein in VCaP cells by ELISA
Assay type: cell-based
Conditions: AR degradation, VCaP cells, 16 h, ELISA, Table 3-1; read-out: DC50
Assay Metric: DC50

Example entries and their recorded answers appear below.
Lab book: DC50 of CC1(C)[C@H](Oc2ccc(C#N)c(Cl)c2)C(C)(C)[C@H]1N1Cc2nc(C#C[C@H]3C[C@H](N4CCN(c5ccc6c(c5)C(=O)N(C5CCC(=O)NC5=O)C6=O)CC4)C3)ccc2C1=O (stereo partly drawn) [Compound 355] noted as < 10 nM

Lab book: DC50 of CC1(C)[C@H](Oc2ccc(C#N)c(Cl)c2)C(C)(C)[C@H]1N1Cc2nc(C#CC3CCC(N4CC5(CCN(c6ccc7c(c6)C(=O)N(C6CCC(=O)NC6=O)C7=O)CC5)C4)CC3)ccc2C1=O (stereo partly drawn) [Compound 376] noted as > 300 nM

Would you kindly look at the next entry?
Lab book: DC50 of CC1(C)[C@H](Oc2ccc(C#N)c(Cl)c2)C(C)(C)[C@H]1N1Cc2nc(C#CC3CCC(N4CC5(CCN(c6cc7c(cc6F)C(=O)N(C6CCC(=O)NC6=O)C7=O)CC5)C4)CC3)ccc2C1=O (stereo partly drawn) [Compound 379] noted as 10 to 100 nM

---

Target: androgen receptor (AR) (Homo sapiens)
Assay: Degradation of androgen receptor (AR) protein in VCaP cells by ELISA
Assay type: cell-based
Details: VCaP, AR degradation, VCaP cells, 16 h, ELISA, Table 3-2; read-out: Dmax (%)
Please go through the items and note down their Dmax.

Lab book: Dmax of COc1cc(O[C@H]2C(C)(C)[C@H](N3Cc4nc(C#C[C@H]5CC[C@H](N6CCN(c7cc8c(cc7F)C(=O)N(C7CCC(=O)NC7=O)C8=O)CC6)CC5)ccc4C3=O)C2(C)C)ccc1C#N (some centres unmarked) noted as > 80%

Lab book: Dmax of CC1(C)[C@H](Oc2ccc(C#N)c(Br)c2)C(C)(C)[C@H]1N1Cc2nc(C#C[C@H]3CC[C@H](N4CCN(c5ccc6c(c5)C(=O)N(C5CCC(=O)NC5=O)C6=O)CC4)CC3)ccc2C1=O (some centres unmarked) noted as > 80%

Lab book: Dmax of N#Cc1ccc(O[C@H]2CC[C@H](NC(=O)c3ccn([C@H]4CC[C@H](CN5CCC6(CC5)CN(c5ccc7c(c5)C(=O)N(C5CCC(=O)NC5=O)C7=O)C6)CC4)n3)CC2)cc1Cl (some centres unmarked) noted as > 80%

Lab book: Dmax of CC1(C)[C@H](Oc2ccc(C#N)c(Cl)c2)C(C)(C)[C@H]1N1Cc2nc(C#C[C@H]3C[C@H](N4CCN(c5cc6c(cc5F)C(=O)N(C5CCC(=O)NC5=O)C6=O)CC4)C3)cnc2C1=O (some centres unmarked) noted as > 80%

More entries:
Lab book: Dmax of CC1(C)[C@H](Oc2ccc(C#N)c(Cl)c2)C(C)(C)[C@H]1N1Cc2nc(C#CC3CCC(N4CC5CC4CN5c4ccc5c(c4)C(=O)N(C4CCC(=O)NC4=O)C5=O)CC3)cnc2C1=O (some centres unmarked) noted as < 40%

---

Please go through the items and note down their DC50.
Biological target: androgen receptor (AR) (Homo sapiens, UniProt P10275)
Assay: Degradation of androgen receptor (AR) protein in VCaP cells by ELISA
Type: cell-based

Example entries and their recorded answers appear below.
Lab book: DC50 of N#Cc1ccc(O[C@H]2CC[C@H](NC(=O)c3ccc(N4CCC(CN5CCC6(CC5)CN(c5ccc7c(c5)C(=O)N(C5CCC(=O)NC5=O)C7=O)C6)CC4)nn3)CC2)cc1 (some centres unmarked) [Compound 131] noted as 10 to 100 nM

Lab book: DC50 of N#Cc1ccc(O[C@H]2CC[C@H](NC(=O)c3ncc(N4CCC(CN5CCC6(CC5)CN(c5cc7c(cc5F)C(=O)N(C5CCC(=O)NC5=O)C7=O)C6)CC4)cn3)CC2)cc1Cl (some centres unmarked) [Compound 148] noted as > 300 nM

Lab book: DC50 of [2H]C([2H])([2H])N(C(=O)c1ccc(N2CCC(CN3CCN(c4cc5c(cc4F)C(=O)N(C4CCC(=O)NC4=O)C5=O)CC3)CC2)nn1)[C@H]1CC[C@H](Oc2ccc(C#N)c(Cl)c2)CC1 (some centres unmarked) [Compound 133] noted as > 300 nM

Lab book: DC50 of N#Cc1ccc(O[C@H]2CC[C@H](NC(=O)c3ncc(N4CCC(CN5CCC6(CC5)CN(c5ccc7c(c5)C(=O)N(C5CCC(=O)NC5=O)C7=O)C6)CC4)cn3)CC2)cc1Cl (some centres unmarked) [Compound 149] noted as > 300 nM

Would you kindly look at the next entry?
Lab book: DC50 of N#Cc1ccc(O[C@H]2CC[C@H](NC(=O)c3noc(N4CCC(CN5CCC6(CC5)CN(c5ccc7c(c5)C(=O)N(C5CCC(=O)NC5=O)C7=O)C6)CC4)n3)CC2)cc1Cl (some centres unmarked) [Compound 415] noted as < 10 nM
